Data origin, for the record: patent US9434711B2

# test_target: canine TRPM8 (Canis lupus familiaris)
# Sequence (Q1A7N1 1-1104): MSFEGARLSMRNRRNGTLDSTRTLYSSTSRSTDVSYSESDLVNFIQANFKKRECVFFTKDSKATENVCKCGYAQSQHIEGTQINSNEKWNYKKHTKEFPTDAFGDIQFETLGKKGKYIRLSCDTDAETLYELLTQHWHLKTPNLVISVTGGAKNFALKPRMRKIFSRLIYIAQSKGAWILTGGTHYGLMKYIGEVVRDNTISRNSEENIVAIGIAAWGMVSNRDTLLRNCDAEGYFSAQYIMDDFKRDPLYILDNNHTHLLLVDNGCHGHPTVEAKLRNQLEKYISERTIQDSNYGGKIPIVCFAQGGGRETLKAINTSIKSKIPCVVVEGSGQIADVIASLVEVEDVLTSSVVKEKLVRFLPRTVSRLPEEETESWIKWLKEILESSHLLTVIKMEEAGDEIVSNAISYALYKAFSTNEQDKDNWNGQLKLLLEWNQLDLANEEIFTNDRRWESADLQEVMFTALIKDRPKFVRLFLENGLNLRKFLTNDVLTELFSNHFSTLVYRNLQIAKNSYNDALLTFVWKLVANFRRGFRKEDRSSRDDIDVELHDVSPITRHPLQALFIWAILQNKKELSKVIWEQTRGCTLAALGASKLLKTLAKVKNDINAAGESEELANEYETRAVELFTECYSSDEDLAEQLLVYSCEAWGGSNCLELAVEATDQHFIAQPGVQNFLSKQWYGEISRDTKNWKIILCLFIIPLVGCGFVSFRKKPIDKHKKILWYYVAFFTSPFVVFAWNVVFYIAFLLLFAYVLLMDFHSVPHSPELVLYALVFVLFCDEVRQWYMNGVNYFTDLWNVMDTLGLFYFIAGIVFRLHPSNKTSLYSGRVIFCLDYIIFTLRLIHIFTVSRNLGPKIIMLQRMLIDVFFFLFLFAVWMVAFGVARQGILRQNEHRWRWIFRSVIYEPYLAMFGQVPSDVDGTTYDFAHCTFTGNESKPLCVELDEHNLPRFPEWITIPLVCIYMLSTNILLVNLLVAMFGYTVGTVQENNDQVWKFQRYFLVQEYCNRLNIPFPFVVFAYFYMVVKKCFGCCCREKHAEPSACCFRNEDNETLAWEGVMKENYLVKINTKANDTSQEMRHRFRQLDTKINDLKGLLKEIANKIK
# assay_overview: In Vitro Canine TRPM8 Functional Assay (Ca2+ fluorescence, icilin activation)
# Assay type: cell-based
# experimental_parameters: compound at 0.2 μM; canine TRPM8, icilin activation; read-out: % Inh @ 0.2
quantity: inhibition at 0.2 µM (%)
Number only, in %; omit the unit.

As a guide, the following entries are already answered.
Cc1c(N(Cc2ccc(F)c(C(F)(F)F)c2)S(=O)(=O)c2cccc(C(=O)O)c2)sc2cc(F)ccc12 : 85
Cc1c(N(Cc2ccc(F)c(C(F)(F)F)c2)S(=O)(=O)CC(=O)O)sc2ccccc12 : 23
Cc1c(N(Cc2ccc(Cl)c(F)c2)S(=O)(=O)c2ccc(C(=O)O)cc2)sc2ccccc12 : 101
O=S(=O)(c1cccnc1)N(Cc1ccc(F)c(F)c1)c1sc2ccccc2c1Br : 102
N#Cc1cccc(S(=O)(=O)N(CCC2CC2)c2cc3ccccc3s2)c1 : 15

The compound listed as Cc1c(N(CCC(F)(F)F)S(C)(=O)=O)sc2ccccc12 shows inhibition at 0.2 µM equal to 77

Form: compound = COc1ccc(CN(c2sc3ccccc3c2C)S(=O)(=O)c2ccc(C(=O)O)cc2)cc1OC ; inhibition at 0.2 µM = 101

For CC(=O)c1c(N(Cc2ccc(F)c(Cl)c2)S(=O)(=O)c2ccc(Br)cc2)sc2ccccc12 the compound record lists inhibition at 0.2 µM as 100

Briefly, inhibition at 0.2 µM measured for Cc1c(N(Cc2ccc(F)c(C(F)(F)F)c2)S(=O)(=O)c2ccc3[nH]c(=O)oc3c2)sc2ccccc12 : 96
